Values from ChEMBL document CHEMBL1275394

# System: MT2
# Test description: Cytotoxicity against human MT2 cells assessed as concentration required to 5% inhibition of cell growth relative to control
# Assay type: cell-based
Listed here are compounds together with their documented Activity.

{"Compound": "O=C(O)C(=O)CC(=O)c1cccn1Cc1ccc(F)cc1", "Activity": "> 69.3 µM"}
{"Compound": "COC(=O)/C(O)=C/C(=O)c1cc(NC(=O)/C=C/c2ccc(O)c(O)c2)cc(NC(=O)/C=C/c2ccc(O)c(O)c2)c1", "Activity": "> 47.7 µM"}

Request: Suppose we examine the compound O=C(/C=C/c1ccc(O)c(O)c1)OCC(OC(=O)/C=C/c1ccc(O)c(O)c1)c1nnn[nH]1 (racemic) ; what Activity value has been reported?
Response: > 42.5 µM

Request: What do you have for O=C(/C=C/c1ccc(O)c(O)c1)Nc1cc(NC(=O)/C=C/c2ccc(O)c(O)c2)cc(C(=O)/C=C(\O)C(=O)O)c1 ?
Response: > 50.7 µM

----------
# Test description: Inhibition of HIV NL4-3 recombinant histidine-tagged integrase strand transfer activity expressed in Escherichia coli BL21 (DE3)
# Parameters: species or system Human immunodeficiency virus
Property name: pIC50
Lab note — pIC50 values are minus log10 of concentrations in M.

{"Chemical structure": "COC(=O)/C(O)=C/C(=O)c1ccc(NC(=O)/C=C/c2ccc(O)c(O)c2)cc1", "Reported measurement": 5.86}
{"Chemical structure": "O=C(/C=C/c1ccc(O)c(O)c1)O[C@@H](C(=O)O)[C@@H](OC(=O)c1cccn1Cc1ccc(F)cc1)C(=O)O", "Reported measurement": 5.90}

Request: Bench note: what pIC50 did O=C(/C=C(\O)C(=O)O)/C=C/c1ccc(O)c(O)c1 show?
Response: 6.09

Request: What do we get for O=C(O)/C(O)=C/C(=O)c1ccc(O)c(O)c1 ?
Response: 5.95
